# system: matriptase (Homo sapiens, UniProt Q9Y5Y6)
# Construct: purchased R&D Systems 3946-SEB
# Sequence (Q9Y5Y6 615-855 limits assumed): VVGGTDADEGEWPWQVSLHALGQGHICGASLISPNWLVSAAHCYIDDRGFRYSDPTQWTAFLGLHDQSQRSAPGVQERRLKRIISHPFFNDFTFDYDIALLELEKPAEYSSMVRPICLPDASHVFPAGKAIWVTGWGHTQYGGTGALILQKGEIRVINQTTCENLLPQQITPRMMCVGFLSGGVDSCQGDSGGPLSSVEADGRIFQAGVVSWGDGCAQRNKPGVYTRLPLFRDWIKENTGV
# protocol details: FRET peptide cleavage efficiency with matriptase
# Format: biochemical
# setup conditions: t = 15 min; 200 uM linker, 1 ug/ml protease, 37° C., buffer B pH 9.0
Square brackets hold non-standard residues; d marks the D form. Ends that are not written are not given here. Tyr(3-NO2) = N[C@@H](Cc1ccc(O)c([N+](=O)[O-])c1)C(=O)O; 2Abz = Nc1ccccc1C(=O)O
measured property: % cleavage Matriptase t = 15 min (%)
One number for each entry, in %.

1. SGRVLTLRKAGPAGLVG ([2Abz]SGRVLTLRKAGPAGLVG[Tyr(3-NO2)]-NH2) [LNK011]; 99
2. SSRGPASNRRLPLGLAG ([2Abz]SSRGPASNRRLPLGLAG[Tyr(3-NO2)]-NH2) [LNK001]; 77
3. GSSVYSGR ([2Abz]GSSVYSGR[Tyr(3-NO2)]-NH2) [LNK080]; 2

Look at each substance and report its % cleavage Matriptase t = 15 min.
1. KSKQHSL ([2Abz]KSKQHSL[Tyr(3-NO2)]-NH2) [LNK077]
2. RGRRPLGLAGGSG ([2Abz]RGRRPLGLAGGSG[Tyr(3-NO2)]-NH2) [LNK051]
3. SGRVLGPLNLSG ([2Abz]SGRVLGPLNLSG[Tyr(3-NO2)]-NH2) [LNK008]
4. RGRRVANPLGYFGKL ([2Abz]RGRRVANPLGYFGKL[Tyr(3-NO2)]-NH2) [LNK058]

[0, 22, 20, 88]

Look at each substance and report its % cleavage Matriptase t = 15 min.
1. PASNRRLPLGLAG ([2Abz]PASNRRLPLGLAG[Tyr(3-NO2)]-NH2) [LNK018]
2. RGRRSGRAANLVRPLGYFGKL ([2Abz]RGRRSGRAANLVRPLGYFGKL[Tyr(3-NO2)]-NH2) [LNK059]
3. SSLYSSPG ([2Abz]SSLYSSPG[Tyr(3-NO2)]-NH2) [LNK065]
4. RRLHYSL ([2Abz]RRLHYSL[Tyr(3-NO2)]-NH2) [LNK073]
5. SQYQSSPG ([2Abz]SQYQSSPG[Tyr(3-NO2)]-NH2) [LNK067]
6. RQRRSPLGLAG ([2Abz]RQRRSPLGLAG[Tyr(3-NO2)]-NH2) [LNK010]

1. 49
2. 76
3. 0
4. 1
5. 0
6. 98

Look at each substance and report its % cleavage Matriptase t = 15 min.
1. HSSKLQYFGKL ([2Abz]HSSKLQYFGKL[Tyr(3-NO2)]-NH2) [LNK061]
2. SGRVANPLGGSG ([2Abz]SGRVANPLGGSG[Tyr(3-NO2)]-NH2) [LNK053]
3. RGRRVANPLGLAGSG ([2Abz]RGRRVANPLGLAGSG[Tyr(3-NO2)]-NH2) [LNK050]
4. SGRPLGYFGKL ([2Abz]SGRPLGYFGKL[Tyr(3-NO2)]-NH2) [LNK056]

0
3
78
0

Supply reported % cleavage Matriptase t = 15 min belonging to this substance: SGRVLTLRKAPWGLLE ([2Abz]SGRVLTLRKAPWGLLE[Tyr(3-NO2)]-NH2) [LNK004]
98

Measured values drawn from patent US20240400614A1 for this set.
